- SUBJECT_OF_TEST: Caspase-6 (Homo sapiens)
- Sequence (P55212 whole entry): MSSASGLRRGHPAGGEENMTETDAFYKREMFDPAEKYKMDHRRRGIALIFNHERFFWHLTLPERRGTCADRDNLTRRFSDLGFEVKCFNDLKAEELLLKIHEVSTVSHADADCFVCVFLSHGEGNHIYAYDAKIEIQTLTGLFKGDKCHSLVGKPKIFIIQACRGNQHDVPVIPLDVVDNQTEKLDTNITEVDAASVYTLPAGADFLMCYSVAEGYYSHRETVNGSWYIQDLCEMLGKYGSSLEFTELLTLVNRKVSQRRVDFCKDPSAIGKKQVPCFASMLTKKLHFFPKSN
pIC50: −log10 of the molar value.
pIC50 values, listed per item

CCC[CH2][Sn]([CH2]CCC)([CH2]CCC)[c]1ccc(CN2C(=O)C(=O)c3cc(S(=O)(=O)N4CCC[C@H]4COC)ccc32)cc1 < 3.30

Lab request: please report pIC50 under test system Caspase-6 (Homo sapiens) for CCC[CH2][Sn]([CH2]CCC)([CH2]CCC)[c]1ccc(CN2C(=O)C(=O)c3cc(S(=O)(=O)N4CCC[C@H]4COc4ccccc4)ccc32)cc1
< 3.30

Just for reference, BindingDB's records for doi:10.1021/jm051217c is where these values come from.
